Molecular target: T1, FR3exFc (human)
T1 construct: also called FGFR3/Fc; FR3/Fc
T1 sequence (chain, as listed by the source limits assumed): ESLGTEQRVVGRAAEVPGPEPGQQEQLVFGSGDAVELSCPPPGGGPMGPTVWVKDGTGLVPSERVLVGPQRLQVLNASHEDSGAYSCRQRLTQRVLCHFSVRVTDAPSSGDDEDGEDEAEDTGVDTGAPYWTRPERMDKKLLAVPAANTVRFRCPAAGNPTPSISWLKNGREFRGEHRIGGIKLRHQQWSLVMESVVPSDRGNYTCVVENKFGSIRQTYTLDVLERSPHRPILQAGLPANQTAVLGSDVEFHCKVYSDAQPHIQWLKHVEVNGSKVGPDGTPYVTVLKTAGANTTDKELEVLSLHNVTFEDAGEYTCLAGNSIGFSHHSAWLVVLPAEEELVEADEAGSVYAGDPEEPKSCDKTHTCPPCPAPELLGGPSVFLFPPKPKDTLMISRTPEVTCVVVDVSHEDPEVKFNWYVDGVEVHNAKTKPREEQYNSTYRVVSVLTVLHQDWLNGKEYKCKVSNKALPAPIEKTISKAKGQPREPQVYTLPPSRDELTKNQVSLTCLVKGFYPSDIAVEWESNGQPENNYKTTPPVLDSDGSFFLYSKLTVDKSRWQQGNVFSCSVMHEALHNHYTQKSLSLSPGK
Assay: BIACORE, FGFR3 captured on an anti-Fc chip
endpoint-label: Kd (nM)
Output spec: scalar in nM, unitless text.

binder: MSPRO11 (Fab, V domains shown) VH: QVQLVQSGAEVKKPGASVKVSCKASGYTFTSYYMHWVRQAPGQGLEWMGWINPNSGGTNYAQKFQGRVTMTRDTSISTAYMELSSLRSEDTAVYYCARYYGSSLYHYVFGGFIDYWGQGTLVTVSS VL: DIALTQPASVSGSPGQSITISCTGTSSDVGGYNYVSWYQQHPGKAPKLMIYDVSNRPSGVSNRFSGSKSGNTASLTISGLQAEDEADYYCQSHHFYEVFGGGTKLTVLG
reading-unit: nM
Kd: 4

binder: MSPRO12 (Fab, V domains shown, HuCAL Fab, framework VH2_L3) VH: QVQLKESGPALVKPTQTLTLTCTFSGFSLSTSGVGVGWIRQPPGKALEWLALIDWDDDKYYSTSLKTRLTISKDTSKNQVVLTMTNMDPVDTATYYCARYHSWYEMGYYGSTVGYMFDYWGQGTLVTVSS VL: DIELTQPPSVSVAPGQTARISCSGDALGDKYASWYQQKPGQAPVLVIYDDSDRPSGIPERFSGSNSGNTATLTISGTQAEDEADYYCQSYDFDFAVFGGGTKLTVLG
reading-unit: nM
Kd: 14

Now let's try a different one.
Input: # input binder: MSPRO26 (Fab, V domains shown) VH: QVQLVQSGAEVKKPGASVKVSCKASGYTFTSYYMHWVRQAPGQGLEWMGWINPNSGGTNYAQKFQGRVTMTRDTSISTAYMELSSLRSEDTAVYYCARGYWYAYFTYINYGYFDNWGQGTLVTVSS VL: DIALTQPASVSGSPGQSITISCTGTSSDVGGYNYVSWYQQHPGKAPKLMIYDVSNRPSGVSNRFSGSKSGNTASLTISGLQAEDEADYYCQSYDNNSDVVFGGGTKLTVLG ; wanted: its Kd
Output: 4
